Assay: yeast display, Sf9 membrane polyspecificity reagent, FACS + sequencing; frameworks hold sequencing errors

Item Sequence	polyreactivity (PSR sort gate)
QVQLVESGGGLVQAGGSLRLSCAASGRTFWSNAMGWYIQAPGKERELVAVIYTTTGNTYYADSVKGRFSISRDYAKNTVYLQMNSLKPEDTAVYYCNTRSGAFFLSKPYDYWGQGTQVTVSW	low polyreactivity
QVQLVESGGGLGQAGGSLRLSCAASGSIFITYAMGWYRQAPGKERELVAAIRRGGRTNYADSVKGRFTISRDNAKNTVYLQMNSLKPEDTAVYYCAAEFRTGWPYYPDYAYDYWGQGSQVTVSS	low polyreactivity

###

Assay: yeast display, Sf9 membrane polyspecificity reagent, FACS + sequencing; frameworks hold sequencing errors
Measured Metric: polyreactivity (PSR sort gate)

Item Sequence	Measured Metric	Value Measured
QVQLVESGGCLVQAGGSLRLSCAASGRIFYNYAMGWYRQAPGKERELVAAISGSGGSTYYADSVKGRFTISRDNAKNTVYLQMNSLKPEDTAVYYCSTSGPQYYSRNFDYWGQGTQVTVSS	polyreactivity (PSR sort gate)	low polyreactivity
QVQLVESGGGLVQAGGSLRLSCAASGFIFAYNAMGWYRQAPGKEWELVAAISWSGGSTYYADSVKGRFTISRDNAKNTVYLQMNSLKPEDTAVYYCNKYLRYPFKRYGYWGQGTQVTVSS	polyreactivity (PSR sort gate)	high polyreactivity
QVQLVESGGGLVQAGGSLRLSCAASGSTFRQYAMGWYRQAPGKERELVAGISYRGGRTYYADSVKGRFTISRDNAKNTVYLHMNSLKPEDTAVYYCNALRHYRDISVDGDDYWGQGTQVTVSS	polyreactivity (PSR sort gate)	high polyreactivity
QVQHVESGGGLVQAGGSLRLSCAASGFIFTANAMGWYRQAPGKERELVAGIRSGSSTYYADSVKGRFTISRDNAKNTVYLQLNSLKPEDTAVYYCNAEKFNFIYAYEYWGKGTQVTVSS	polyreactivity (PSR sort gate)	low polyreactivity
QVQLVESGGGLVQAGGSLRLSCAASGSTFGPYAMGWYRQAPGKERELVADITVSDGSTYYADSVKGRFTISRDNAKNTVYLQMNSLKPEHTAVYYCAAEIYYSFGYWGQGTQVTVSS	polyreactivity (PSR sort gate)	low polyreactivity
QVQLVESGGGLVKAGGSLRLSCAASGFTFPQYAMGWYRQAPGKERELVAAISKRSVGTRYADSVKGRFTISRDNAKNTLYLQMNSLKPEDTAVYYCNKYGQVPGYFSLDYWGQGTQVTVSS	polyreactivity (PSR sort gate)	high polyreactivity
QVQLVESGGGIVQAGGSLRLSCAASGGTFRVNAMVWYRQAPGKEREFVAAISGSGSSTYYADSVKGRFTISRDNAKNTVYLQMNSLKPEDTAVYYCAARSGVGGDNDYWGQGTQVTVSS	polyreactivity (PSR sort gate)	low polyreactivity
QVQLVESGGGLVQAGGSLRLSCAASGSILFYNTMGWYRQAPGKERELVASITSGGSTKYADSVKGRFTISRDNAKNTVYLQMNSLKPEDTAVYYCNADRRFYSIYRWHHYYWGQGTQVTVSS	polyreactivity (PSR sort gate)	low polyreactivity
QVQLVESAGGLVQAGGSLRLSCAASGSTLYGYVMGWYRQAPGKERELVAAITWSSGYTYYADSVKGRFTISRDNAKITVYLQMNILKPVDTAVYYCAVRDRSPYGYYYWGQGTQVTVSS	polyreactivity (PSR sort gate)	low polyreactivity
QVQLVESGGGLVQAGGSLRLSCAASGRIFSPNAMGWYRQAPGKERELVAVSSWRGVSTYFADSVKGRFTISRDNAKNTVYLQMNSLKPEDTAVYYCAVDNKSVYYWRQYYYWGQGTQVTVSS	polyreactivity (PSR sort gate)	high polyreactivity
QVQLVESGGGLVQAGGRLRLSCAASGIISSAYAIGWYRQAPGKERELVAAISSGGSTKYADSVKGRFTISRDNAKNTVYLQMNSLKPEDTAVYYCAARTRYPYKVFGYWGQGTQVTVSS	polyreactivity (PSR sort gate)	high polyreactivity
QVQLVESGGGLVQAGGSLRLSCAASGRTFVGYTMGWYRQAPGKERELVAAIDLSDGSTSYADSVKGRFTISRDNAKNTVYLQMNSLIPEDTAVYYCAKTWANVYAGAHDYWGLGTQVTVSS	polyreactivity (PSR sort gate)	low polyreactivity

Origin of the recorded values: the nanobody polyreactivity screen of Harvey et al. (2022)
